This section presents compounds with their documented IC50 values.
- measurement target: TNFα (Homo sapiens)
- Sequence (P01375 77-233 limits assumed): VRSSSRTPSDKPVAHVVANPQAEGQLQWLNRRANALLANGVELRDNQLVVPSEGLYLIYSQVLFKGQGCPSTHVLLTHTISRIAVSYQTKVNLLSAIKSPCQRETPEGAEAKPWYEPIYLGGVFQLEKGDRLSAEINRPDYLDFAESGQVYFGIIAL
- assay: TNF-Induced HEK-Blue Assay
- Assay type: cell-based
- condition description: HEK-Blue-CD40L cells, NF-kB-driven secreted alkaline phosphatase reporter; TNFα 0.5 ng/ml; 18 h; read-out: TNF induced HEK-Blue assay IC50 value
Positions of bridges follow the written chain, without caps; N, C: chain ends. Non-standard residues stand in square brackets, D forms with d. Residues, ends and D or L forms follow the SMILES beside them. Bip(4'-COOH) = N[C@@H](Cc1ccc(-c2ccc(C(=O)O)cc2)cc1)C(=O)O; Ala(morpholin-4-yl) = N[C@@H](CN1CCOCC1)C(=O)O; Bip = N[C@@H](Cc1ccc(-c2ccccc2)cc1)C(=O)O; d(αMeP) = C[C@]1(C(=O)O)CCCN1; Sar = CNCC(=O)O
quantity name: IC50

{"compound": "CC(C)C[C@@H]1NC(=O)[C@H](CCCNC(=N)N)NC(=O)[C@H](C(C)C)NC(=O)[C@@H]2CCCN2C(=O)[C@H](Cc2ccc(O)cc2)NC(=O)[C@H](CCCNC(=N)N)NC(=O)[C@H](CC(=O)O)NC(=O)[C@@H]2CCCN2C(=O)CN(C)C(=O)[C@H](Cc2ccc(-c3ccccc3)cc2)NC(=O)[C@H](Cc2ccc(-c3ccc(C(=O)O)cc3)cc2)NC(=O)[C@H](CN2CCOCC2)NC(=O)CSC[C@@H](C(=O)NCC(N)=O)NC1=O [Example 122] ({CH2CO}-[Ala(morpholin-4-yl)][Bip(4'-COOH)][Bip][Sar]PDRYPVRLCG-NH2; thioether N-13)", "endpoint value": "200 to 2000 nM"}
{"compound": "CC(C)C[C@@H]1NC(=O)[C@H](Cc2ccc(O)cc2)NC(=O)[C@H](C(C)C)NC(=O)[C@@H]2CCCN2C(=O)[C@H](C(C)C)NC(=O)[C@H](CCCNC(=N)N)NC(=O)[C@H](CC(=O)O)NC(=O)[C@@]2(C)CCCN2C(=O)CN(C)C(=O)[C@H](Cc2ccc(-c3ccccc3)cc2)NC(=O)[C@H](Cc2ccc(-c3ccccc3)cc2)NC(=O)[C@H](CN2CCOCC2)NC(=O)CSC[C@@H](C(=O)NCC(N)=O)NC1=O [Example 101] ({CH2CO}-[Ala(morpholin-4-yl)][Bip][Bip][Sar][d(αMeP)]DRVPVYLCG-NH2; thioether N-13)", "endpoint value": "50 to 200 nM"}
